// cross-source set; read-out = IC50; system = Lysine-specific histone demethylase 1A (Homo sapiens)

Some molecules with known IC50 results, for comparison:
CCc1ccc(-c2c(-c3ccc(C#N)c(F)c3)cc(NC[C@H]3CCNC3)c(=O)n2C)cc1
< 100 nM
CN[C@H]1CCN(C(=O)c2nc(-c3ccc(C#N)c(F)c3)n(-c3ccc(OC)c(F)c3)c2F)C1
< 100 nM
O=C(O)[C@H](Cc1c[nH]c2ccccc12)NCC1(CN[C@@H]2C[C@H]2c2ccccc2)CC1
100 to 500 nM

// fetch Lysine-specific histone demethylase 1A (Homo sapiens) IC50 for `O=C(O)c1ccc(CN2CC(c3nc(C4(CN[C@H]5C[C@@H]5c5ccccc5)CC4)no3)C2)cc1`
100 to 500 nM

// fetch Lysine-specific histone demethylase 1A (Homo sapiens) IC50 for N#Cc1ccc(-c2cc(NCC3CCCNCC3)nn2-c2ccc(N3CCN(CCO)CC3)cc2)cc1F (centres unmarked)
< 500 nM

// fetch Lysine-specific histone demethylase 1A (Homo sapiens) IC50 for `CO[C@H]1CCN(c2ccc(-n3c(-c4ccc(C#N)c(F)c4)nc4c(N5CCC[C@H](N)C5)ccnc43)c(F)c2)C1`
36 nM

// fetch Lysine-specific histone demethylase 1A (Homo sapiens) IC50 for c1ccc(C2C[C@@H]2NCC2(CNCc3ccc[nH]3)CC2)cc1 (some centres unmarked)
≤ 50 nM

// fetch Lysine-specific histone demethylase 1A (Homo sapiens) IC50 for `CNC1CCN(c2cnc(C#CC3(O)CCCC3)c(-c3ccc(C#N)c(F)c3)n2)CC1`
< 100 nM

====

// cross-source set; read-out = IC50; system = Lysine-specific histone demethylase 1A (Homo sapiens)

Some molecules with known IC50 results, for comparison:
Cc1ccc(-c2c(-c3ccc(C#N)c(F)c3)cc(C(=O)N3CCC[C@@H](N)C3)n2CCCO)cc1
< 100 nM
CN[C@H]1CCN(C(=O)c2nc(-c3ccc(C#N)c(F)c3)n(-c3ccc4nn(C)c(C)c4c3)c2C)C1
< 100 nM
CN[C@@H]1CCCN(C(=O)c2cn(-c3ccc4nn(C)c(Cl)c4c3)c(-c3ccc(C#N)c(F)c3)n2)C1
< 100 nM
Cn1c(-c2ccc(C3CC3)cc2)c(-c2ccc(C#N)cc2)nc(NC[C@@H]2CCNC2)c1=O
< 100 nM
Nc1c(F)c(NCCN[C@@H]2C[C@H]2c2ccccc2)cc2c1c(=O)c(C(=O)O)cn2C1CC1 (relative stereo)
7400 nM
OC1CC(CN[C@H]2CC2c2ccccc2)(c2cccnc2)C1 (stereo partly shown)
≤ 50 nM

# next molecule below
Given the entry `Cc1ccc(-c2cnc(N3C[C@H]4CNC[C@H]4C3)nc2-c2ccc(C#N)cc2)cc1` , report its measured IC50.
< 100 nM

====

pIC50: −log10 of the molar value.
// cross-source set; read-out = pIC50; system = Lysine-specific histone demethylase 1A (Homo sapiens)

Some molecules with known pIC50 results, for comparison:
CN(C)C1CCN(c2nc(-c3ccc(C#N)c(F)c3)c(-c3ccc4c(cnn4C)c3)c(=O)n2C)CC1
> 7.00
CNC1CCN(c2nc(-c3ccc(C#N)c(F)c3)c(-c3ccc(OC)cc3)c(=O)n2C)CC1
> 7.00
FC(F)(F)c1ccc(-c2nc(C3(CN[C@H]4CC4c4ccccc4)CC3)no2)cn1 (some centres unmarked)
≥ 7.30
O=C(O)[C@H]1C[C@H](c2nc(C3(CN[C@@H]4C[C@H]4c4ccccc4)CC3)no2)C1
7.00 to 7.30
COc1ccc(-c2c(-c3ccc(C#N)c(F)c3)nc(N3CCC[C@@H](N)C3)n(C)c2=O)cc1
> 7.00
O=c1c(N2CCNCC2)nc(CCCN[C@@H]2C[C@H]2c2ccc(F)cc2)cn1-c1ccc(F)cc1
8.40

// fetch Lysine-specific histone demethylase 1A (Homo sapiens) pIC50 for `CN[C@@H]1CCCN(C(=O)c2cn(-c3ccc(OC)cc3)c(-c3ccc(C#N)c(F)c3)n2)C1`
> 7.00

// fetch Lysine-specific histone demethylase 1A (Homo sapiens) pIC50 for `CNCCNC(=O)c1cc(-c2ccc(C#N)c(F)c2)c(-c2ccc3nn(C)cc3c2)n1C`
> 7.00

====

// cross-source set; read-out = pIC50; system = UniProtKB O60341
pIC50: −log10 of the molar value.

Some compounds with known pIC50 results, for comparison:
Cc1c(C(=O)N2CC[C@H](N(C)C)C2)nc(-c2ccc(C#N)c(F)c2)n1-c1ccc2c(cnn2C)c1
> 7.00
CCn1cc(C(=O)O)c(=O)c2c(N)c(F)c(NCCN[C@@H]3C[C@H]3c3ccccc3)cc21 (relative stereo)
5.16
Cc1ccc(-n2nc(C(=O)N3CCC(N)CC3)cc2-c2ccc(C#N)c(F)c2)cc1
> 6.30
COc1ccc(-c2c(-c3ccc(C#N)c(F)c3)nc3c(N[C@@H]4CC[C@H](N)C4)nccn23)cc1F (relative stereo)
7.43
Cc1ccc(-c2c(-c3ccc(C#N)cc3)nc(N3CCC4(CCNC4)CC3)c(=O)n2C)cc1
> 7.00
COc1ccc(-n2nc(C(=O)N3CCC[C@@H](N)C3)cc2-c2ccc(C#N)c(F)c2)cc1F
> 6.30

// fetch UniProtKB O60341 pIC50 for `COc1ccc(-n2cc(C(=O)N3CCC(N)CC3)c(-c3ccc(C#N)cc3)n2)cc1`
< 5.00

// fetch UniProtKB O60341 pIC50 for `Cc1ccc(-c2c(-c3ccc(C#N)cc3)cc(C(=O)N3CCC[C@@H](N)C3)n2C)cn1`
> 7.00

// fetch UniProtKB O60341 pIC50 for `COc1ccc(-c2c(-c3ccc(C#N)cc3)nc(NC[C@@H]3CCNC3)n(C)c2=O)cc1F`
> 7.00

// fetch UniProtKB O60341 pIC50 for `Cn1ncc2cc(-c3sc(N4CC[C@@H]5CNC[C@@H]5CC4)nc3-c3ccc(C#N)cc3)cnc21`
≥ 7.00

// fetch UniProtKB O60341 pIC50 for N#Cc1ccc(-c2nc3c(N4CCCC[C@@H](N)C4)ccnc3n2-c2ccc(N3CC4COCC4C3)cc2F)cc1F (stereo partly shown)
7.55

// fetch UniProtKB O60341 pIC50 for Cc1c(C(=O)N2CCC3(CCN3)C2)nc(-c2ccc(C#N)c(F)c2)n1-c1ccc2c(cnn2C)c1 (stereo not shown)
> 7.00

// fetch UniProtKB O60341 pIC50 for `Cn1c(N2CCC(N)CC2)nc(-c2ccc(C#N)c(F)c2)c(-c2cnn(CC(F)(F)F)c2)c1=O`
> 7.00

// fetch UniProtKB O60341 pIC50 for O=C(O)[C@H]1CC[C@@H](c2nc(C3(CN[C@H]4CC4c4ccccc4)CC3)no2)C1 (stereo partly shown)
6.30 to 7.00

// fetch UniProtKB O60341 pIC50 for Cn1ncc2cc(-n3nc(NCC4CCCC(N)C4)cc3-c3ccc(C#N)c(F)c3)ccc21 (racemic)
> 6.30

// fetch UniProtKB O60341 pIC50 for O=C(O)C1CC2(C1)CC(c1nc(C3(CN[C@H]4CC4c4ccccc4)CC3)no1)C2 (stereo partly shown)
6.30 to 7.00

// fetch UniProtKB O60341 pIC50 for `Cn1c(C(=O)N2CCC[C@@H](N)C2)cc(-c2ccc(C#N)cc2)c1-c1ccncc1`
> 7.00

// fetch UniProtKB O60341 pIC50 for `Cn1c(N2CCC(N)CC2)nc(-c2ccc(C#N)c(F)c2)c(C#N)c1=O`
> 7.00

// fetch UniProtKB O60341 pIC50 for `COc1ccc(-c2c(-c3ccc(C#N)nc3)cc(N3CCC(N)CC3)c(=O)n2C)cc1`
> 7.00

// fetch UniProtKB O60341 pIC50 for C[C@@H]1CN(CC2(CN[C@H]3CC3c3ccccc3)CC2)[C@@H](C)CN1C (stereo partly shown)
6.30 to 7.00

// fetch UniProtKB O60341 pIC50 for `Cc1c(C(=O)N(C)CCN)nc(-c2ccc(C#N)c(F)c2)n1-c1ccc2nn(C)cc2c1`
> 7.00

// fetch UniProtKB O60341 pIC50 for `N#Cc1ccc(-c2cn(CC3CC3)c(=O)c(N3CCC(N)CC3)n2)cc1F`
> 7.00

====

// cross-source set; read-out = IC50; system = Lysine-specific histone demethylase 1A (Homo sapiens)

Some molecules with known IC50 results, for comparison:
Cc1c(C(=O)N[C@@H]2CCCNC2)nc(-c2ccc(C#N)c(F)c2)n1-c1ccc2nn(C)c(Cl)c2c1
< 100 nM
Cn1c(-c2ccc(C3CC3)cc2)c(-c2ccc(C#N)nc2)cc(NC[C@H]2CCNC2)c1=O
< 100 nM
N[C@H]1CC[C@@H](c2nc(C3(CN[C@@H]4C[C@H]4c4ccccc4)CC3)no2)C1
≤ 50 nM
Cn1cc2cc(-c3c(-c4ccc(C#N)c(F)c4)nc(N4CCC(N)CC4)n(C)c3=O)ccc2n1
< 100 nM
COc1ccc(-c2c(-c3ccc(C#N)c(F)c3)nc(N3CCC(N(C)C)CC3)n(C)c2=O)cn1
< 100 nM
CNC1CCN(c2cnc(-c3cc4ncn(C)c4c(F)c3F)c(-c3ccc(C#N)c(F)c3)n2)CC1
< 100 nM
CN1CCN(c2ccc(-n3nc(NC[C@H]4CCC[C@H](N)C4)cc3-c3ccc(C#N)c(F)c3)cc2)CC1
500 to 1000 nM
Cn1c(N2CCC(N)CC2)nc(-c2ccc(C#N)c(F)c2)c(-c2ccc3c(c2)CNC3=O)c1=O
< 100 nM
Cn1ncc2c1CN(CC1(CN[C@H]3CC3c3ccccc3)CC1)C2 (stereo partly shown)
≤ 50 nM
CC1(C)CCN(CC2(CN[C@H]3C[C@@H]3c3ccccc3)CC2)C1
50 to 100 nM

// fetch Lysine-specific histone demethylase 1A (Homo sapiens) IC50 for `Cn1cnc2cc(-c3sc(C(=O)N4CCC[C@@H](N)C4)nc3-c3ccc(C#N)cc3)ccc21`
≤ 100 nM

// fetch Lysine-specific histone demethylase 1A (Homo sapiens) IC50 for `Cn1ncc2cc(-c3sc(N4CCC(N)CC4)nc3-c3ccc(C#N)cc3)ccc21`
≤ 100 nM

// fetch Lysine-specific histone demethylase 1A (Homo sapiens) IC50 for `Cn1nc2ccc(-n3cc(C(=O)N[C@@H]4CCCNC4)nc3-c3ccc(C#N)c(F)c3)cc2c1Cl`
< 100 nM

// fetch Lysine-specific histone demethylase 1A (Homo sapiens) IC50 for `Cc1ccc(-c2c(-c3ccc(C#N)c(F)c3)nc(N3CCC(N)CC3)c(=O)n2C)cn1`
< 100 nM

// fetch Lysine-specific histone demethylase 1A (Homo sapiens) IC50 for `CN(C)[C@H]1CCN(C(=O)c2cn(-c3ccc4nn(C)cc4c3)c(-c3ccc(C#N)c(F)c3)n2)C1`
< 100 nM

// fetch Lysine-specific histone demethylase 1A (Homo sapiens) IC50 for `Cn1cnc2cc(-c3sc(C(=O)N4CCC(N)CC4)nc3-c3ccc(C#N)cc3)ccc21`
≤ 100 nM

// fetch Lysine-specific histone demethylase 1A (Homo sapiens) IC50 for `Cc1ccc(-c2cc(NCC3CCNCC3)nn2-c2ccc(C#N)cc2)cc1`
< 100 nM
